Molecular target: Follistatin-related protein 3 (Homo sapiens) (UniProt O95633)
Sequence (O95633 whole entry, looked up): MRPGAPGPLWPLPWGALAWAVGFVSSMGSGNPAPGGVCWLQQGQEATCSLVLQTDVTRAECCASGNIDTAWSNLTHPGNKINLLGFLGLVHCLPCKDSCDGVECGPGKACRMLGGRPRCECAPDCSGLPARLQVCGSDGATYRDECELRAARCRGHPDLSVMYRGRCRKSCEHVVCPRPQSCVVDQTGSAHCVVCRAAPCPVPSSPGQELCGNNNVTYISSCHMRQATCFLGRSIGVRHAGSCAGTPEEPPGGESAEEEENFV
Assay: FSTL3 binders on small-molecule microarrays, primary screen, biochemical, small-molecule microarray, 635 nm fluorescence (AID 1105);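 note: score merges emission near 667 nm and signal to noise per printed spot across three slides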
Conditions: FSTL3 binding, higher = more signal
Could you please report measured composite z-score for the items listed next?

INPUT: Param item = C[C@]1(C(=O)O)c2ccccc2C(=O)N(Cc2cc(C(F)(F)F)cc(C(F)(F)F)c2)[C@H]1c1ccc(CO)cc1 ; retrieve measured composite z-score.
OUTPUT: 0.142

INPUT: Param item = Cc1ccc(S(=O)(=O)N2[C@@H](c3ccccc3)C(C(=O)O)=CC[C@H]2c2ccc(F)cc2)cc1 ; retrieve measured composite z-score.
OUTPUT: 0.489

INPUT: Param item = COC(=O)C1=CC(CCCO)=CC(c2ccc(CN3CCCC3)cc2)N(C)C=C1C(=O)OC (configuration not stated) ; retrieve measured composite z-score.
OUTPUT: 0.345

INPUT: Param item = COCCOC(=O)N1C(=O)[C@@]2(c3cc(C#CCNC(N)=O)ccc31)[C@H](C(N)=O)[C@H]1C(=O)O[C@H](c3ccccc3)[C@H](c3ccccc3)N1[C@@H]2c1ccc(O)cc1 ; retrieve measured composite z-score.
OUTPUT: -0.239

INPUT: Param item = COCCCNC(=O)[C@@]1(Cc2ccccc2I)c2ccccc2C(=O)N(Cc2ccccc2OC)[C@H]1c1ccc(CO)cc1 ; retrieve measured composite z-score.
OUTPUT: -0.557

INPUT: Param item = CCCCCCc1nc(Cc2cc(OC)c(OC)c(OC)c2)c(C)c2c1[Si](C(C)C)(C(C)C)OC2 ; retrieve measured composite z-score.
OUTPUT: 0.237

INPUT: Param item = Cc1ccc(N2C(=O)c3ccccc3[C@@H](C(=O)NCCN3CCOCC3)[C@@H]2c2ccc(CO)cc2)nc1 ; retrieve measured composite z-score.
OUTPUT: -0.799

* * *

Could you please report measured composite z-score for the items listed next?
System: Noggin (protein binding on small-molecule microarray)
Assay: Noggin binders on small-molecule microarray, primary screen, biochemical, 635/667 nm fluorescence (AID 1095);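 note: score merges 667 nm feature fluorescence with signal to noise over triplicate slides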
Details: 635 nm fluorescence, higher = more signal
// return just the number, without any unit appended

INPUT: Observed composite z-score on Noggin (protein binding on small-molecule microarray) for COc1cc2c(cc1OC)CN(C(=O)[C@@H]1[C@H]3C(=O)O[C@H](c4ccccc4)[C@H](c4ccccc4)N3[C@H](c3ccc(O)cc3)[C@@]13C(=O)Nc1ccc(C#CC4=CCCCC4)cc13)CC2 , please.
OUTPUT: 0.82

INPUT: Observed composite z-score on Noggin (protein binding on small-molecule microarray) for CN1C2C=C(c3ccc(CO)cc3)C(C3C(=O)N(C(N)=O)C(=O)C32)C1C1CC1 (stereo not drawn) , please.
OUTPUT: -0.4

INPUT: Observed composite z-score on Noggin (protein binding on small-molecule microarray) for COc1ccc([Si](C)(C)[C@H]2[C@H](CC(=O)N(CCO)Cc3ccccc3)O[C@@]3(C(=O)N(Cc4ccc(N5C(=O)c6cccc7cccc5c67)cc4)c4ccccc43)[C@@H]2C)cc1 , please.
OUTPUT: 1.36

* * *

Experiment: HepG2 liver cancer cell viability effects, profiling panel, resazurin fluorescence, 24 h, PK04 Diversity Set (AID 1172); note: test concentration not given here
Settings: higher = more signal
Could you please report measured z-score for the items listed next?
// return just the number, without any unit appended

INPUT: Param item = C[N+](C)(C)CCCC[C@@H]1NC(=O)[C@H]2C[C@@H](C(=O)O)[C@@H](c3ccc(O)cc3)N2C1=O ; retrieve measured z-score.
OUTPUT: 0.363

INPUT: Param item = C=C(CCCC)/C(=C/C[C@@H](OC(C)=O)c1ccc(OCCO)cc1)c1cc(C(=O)OC)ccc1OC ; retrieve measured z-score.
OUTPUT: 0.353

INPUT: Param item = C=C(CCCC)/C(=C/C[C@@H](OC(C)=O)c1cccc(OCCO)c1)c1cc(C(=O)OC)ccc1OC ; retrieve measured z-score.
OUTPUT: 0.978

INPUT: Param item = COC(=O)C(CC#Cc1ccc2c(c1)[C@]1(C(=O)N2)[C@H](C(N)=O)[C@H]2C(=O)O[C@H](c3ccccc3)[C@H](c3ccccc3)N2[C@@H]1c1ccccc1OCCO)C(=O)OC ; retrieve measured z-score.
OUTPUT: -2.07

INPUT: Param item = CCOC(=O)C[C@H]1[C@H](OC(=O)c2cc3ccccc3oc2=O)[C@@H](NC(=O)Cc2ccc(OC)cc2)c2cc(OCCCO)ccc2N1C(=O)Cc1ccc(OC)cc1 ; retrieve measured z-score.
OUTPUT: 1.04

INPUT: Param item = COc1ccc(CCNC(=O)[C@@H]2c3ccccc3C(=O)N(C(C)C)[C@H]2c2ccc(CO)cc2)cc1 ; retrieve measured z-score.
OUTPUT: 0.862

INPUT: Param item = C=CC[C@]1(C(N)=O)N=C(c2ccc(OCCCO)cc2)O[C@H]1c1ccccc1N=[N+]=[N-] ; retrieve measured z-score.
OUTPUT: 0.021

* * *

Target: Neurogenic locus notch homolog protein 2 (Homo sapiens) (UniProt Q04721)
Sequence (Q04721 whole entry, looked up): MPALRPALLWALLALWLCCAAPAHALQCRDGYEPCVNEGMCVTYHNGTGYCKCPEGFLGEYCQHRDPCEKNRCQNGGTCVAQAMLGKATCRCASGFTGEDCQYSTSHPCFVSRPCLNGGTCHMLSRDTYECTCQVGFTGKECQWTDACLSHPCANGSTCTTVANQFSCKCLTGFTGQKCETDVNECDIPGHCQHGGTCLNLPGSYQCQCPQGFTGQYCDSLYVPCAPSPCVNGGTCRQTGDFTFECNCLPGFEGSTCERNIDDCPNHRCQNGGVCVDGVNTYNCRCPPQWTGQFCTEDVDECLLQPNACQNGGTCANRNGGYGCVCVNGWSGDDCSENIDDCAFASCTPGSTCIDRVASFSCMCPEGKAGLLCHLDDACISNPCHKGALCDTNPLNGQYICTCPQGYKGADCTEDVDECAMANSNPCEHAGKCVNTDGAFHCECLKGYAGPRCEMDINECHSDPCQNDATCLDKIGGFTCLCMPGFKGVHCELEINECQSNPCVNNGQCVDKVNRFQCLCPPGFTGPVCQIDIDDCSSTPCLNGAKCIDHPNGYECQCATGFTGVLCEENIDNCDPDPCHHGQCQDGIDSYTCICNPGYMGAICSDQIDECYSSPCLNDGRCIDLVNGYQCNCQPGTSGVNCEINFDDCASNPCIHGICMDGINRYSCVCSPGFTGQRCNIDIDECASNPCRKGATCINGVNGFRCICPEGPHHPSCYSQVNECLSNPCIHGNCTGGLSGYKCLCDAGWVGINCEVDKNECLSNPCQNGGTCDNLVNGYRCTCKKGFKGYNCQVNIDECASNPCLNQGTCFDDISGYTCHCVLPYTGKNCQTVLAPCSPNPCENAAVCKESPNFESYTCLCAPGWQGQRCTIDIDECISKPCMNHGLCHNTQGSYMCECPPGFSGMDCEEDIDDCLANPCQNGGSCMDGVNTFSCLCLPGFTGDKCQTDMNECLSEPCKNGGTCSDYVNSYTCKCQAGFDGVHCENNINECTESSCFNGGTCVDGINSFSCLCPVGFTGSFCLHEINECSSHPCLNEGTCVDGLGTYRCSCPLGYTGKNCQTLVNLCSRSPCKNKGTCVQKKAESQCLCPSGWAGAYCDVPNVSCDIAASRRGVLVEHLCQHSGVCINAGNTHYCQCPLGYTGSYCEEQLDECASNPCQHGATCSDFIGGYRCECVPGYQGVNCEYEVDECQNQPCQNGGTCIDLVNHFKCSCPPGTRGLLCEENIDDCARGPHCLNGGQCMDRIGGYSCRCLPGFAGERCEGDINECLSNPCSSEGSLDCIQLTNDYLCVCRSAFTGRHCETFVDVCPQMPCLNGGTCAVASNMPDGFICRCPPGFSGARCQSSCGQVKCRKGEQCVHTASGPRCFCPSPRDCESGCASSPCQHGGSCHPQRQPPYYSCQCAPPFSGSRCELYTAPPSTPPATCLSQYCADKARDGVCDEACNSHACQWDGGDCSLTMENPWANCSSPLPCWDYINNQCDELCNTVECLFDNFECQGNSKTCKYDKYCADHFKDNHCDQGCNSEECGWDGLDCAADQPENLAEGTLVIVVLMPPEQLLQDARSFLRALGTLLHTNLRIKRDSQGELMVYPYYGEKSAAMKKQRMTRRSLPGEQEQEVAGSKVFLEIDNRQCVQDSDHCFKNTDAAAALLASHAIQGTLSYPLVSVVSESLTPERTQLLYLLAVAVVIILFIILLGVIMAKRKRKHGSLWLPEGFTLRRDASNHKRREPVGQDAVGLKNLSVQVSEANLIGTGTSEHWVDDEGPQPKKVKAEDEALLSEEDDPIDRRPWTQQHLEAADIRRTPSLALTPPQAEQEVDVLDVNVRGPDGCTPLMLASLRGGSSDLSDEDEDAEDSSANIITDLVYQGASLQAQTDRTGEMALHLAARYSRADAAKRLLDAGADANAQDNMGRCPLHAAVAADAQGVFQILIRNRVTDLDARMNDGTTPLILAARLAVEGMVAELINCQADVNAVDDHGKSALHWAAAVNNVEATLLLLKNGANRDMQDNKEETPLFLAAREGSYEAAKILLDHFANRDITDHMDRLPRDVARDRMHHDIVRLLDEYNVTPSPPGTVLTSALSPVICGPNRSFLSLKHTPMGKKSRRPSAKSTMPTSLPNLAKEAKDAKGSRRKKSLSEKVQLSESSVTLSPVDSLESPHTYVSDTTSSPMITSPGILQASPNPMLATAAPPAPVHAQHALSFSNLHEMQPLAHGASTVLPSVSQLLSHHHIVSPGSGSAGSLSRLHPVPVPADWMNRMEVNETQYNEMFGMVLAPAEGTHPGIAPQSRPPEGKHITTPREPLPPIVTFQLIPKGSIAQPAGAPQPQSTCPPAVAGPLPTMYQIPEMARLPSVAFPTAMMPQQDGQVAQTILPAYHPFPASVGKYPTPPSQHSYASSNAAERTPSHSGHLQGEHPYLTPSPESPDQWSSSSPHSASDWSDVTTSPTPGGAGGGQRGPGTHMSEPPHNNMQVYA
Experiment: Notch2 binders on small-molecule microarrays, primary screen, biochemical, small-molecule microarray, 635 nm fluorescence, stem cell growth factors (AID 1073)
Conditions: Notch2 binding, higher = more signal
Readout label: composite z-score
// return just the number, without any unit appended

INPUT: Param item = COc1ccc([Si](C)(C)[C@H]2[C@H](CC(=O)N3CCC[C@H]3CO)O[C@@]3(C(=O)N(Cc4cccc(N5CCCCC5=O)c4)c4ccccc43)[C@@H]2C)cc1 ; retrieve measured composite z-score.
OUTPUT: 0.757

INPUT: Param item = CC1CC/C=C\[C@H]2OC34C=CCN(C(C)C)C(=O)[C@H]3N(C(C)CO)C(=O)[C@@H]4C2C(=O)O1 (stereo partly drawn) ; retrieve measured composite z-score.
OUTPUT: -0.0047

INPUT: Param item = N#Cc1ccc(NN2C(C(O)c3ccc(B(O)O)cc3)C=CC3CN(c4ccccc4)C(=O)C32)cc1 (stereo not drawn) ; retrieve measured composite z-score.
OUTPUT: 0.074

INPUT: Param item = CN1C(=O)C2CC=C(C3=CCO[C@@H]3[C@H]3CCCN3S(=O)(=O)c3ccccc3[N+](=O)[O-])CC2C1=O (stereo partly drawn) ; retrieve measured composite z-score.
OUTPUT: -0.456

INPUT: Param item = Cc1ccc(S[C@]2(C(=O)NC(C)C)CC(=O)N(Cc3ccccc3)[C@@H]2c2ccc(CO)cc2)cc1 ; retrieve measured composite z-score.
OUTPUT: -1.25

INPUT: Param item = C=CC[C@H](O)c1ccc(O)c(F)c1 ; retrieve measured composite z-score.
OUTPUT: -1.73

INPUT: Param item = CC(C)Cc1ccc(CN2CC[C@@H](NC(=O)c3ccccc3)C2)cc1 ; retrieve measured composite z-score.
OUTPUT: -0.859

INPUT: Param item = COc1ccc(CCNC(=O)[C@@H]2c3ccccc3C(=O)N(C(C)C)[C@H]2c2ccc(CO)cc2)cc1 ; retrieve measured composite z-score.
OUTPUT: -1.48

* * *

Test: PSAC antagonists in infected red cells, primary screen, cell-based, P. falciparum Indochina, OD700, 2 h (AID 1155);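 note: lysis reports solute entry through the parasite surface anion channel PSAC; channel blockers reduce lysis of infected cells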
Conditions: P. falciparum Indochina infected erythrocytes, osmotic lysis OD700; higher = more signal, called active from +8 up or from −8 down
Readout label: z-score
// return just the number, without any unit appended

INPUT: Param item = CCCNC(=O)[C@@]1(Sc2ccc(C)cc2)CC(=O)N(Cc2cc(C(F)(F)F)cc(C(F)(F)F)c2)[C@@H]1c1ccc(CO)cc1 ; retrieve measured z-score.
OUTPUT: 0.285

INPUT: Param item = COCCCNC(=O)[C@@]1(c2ccc([N+](=O)[O-])cc2)CC(=O)N(C2CCCCC2)[C@@H]1c1ccc(CO)cc1I ; retrieve measured z-score.
OUTPUT: 1.35

INPUT: Param item = CC(C)C(=C=CC[C@H](O)c1cccc(OCCO)c1)C[C@H](O)c1ccccn1 ; retrieve measured z-score.
OUTPUT: 0.631

INPUT: Param item = COCCOC(=O)N1C(=O)[C@@]2(c3cc(C#CCC(C(=O)OC)C(=O)OC)ccc31)[C@H](C(N)=O)[C@H]1C(=O)O[C@H](c3ccccc3)[C@H](c3ccccc3)N1[C@@H]2c1ccccc1OCCO ; retrieve measured z-score.
OUTPUT: 2.37

INPUT: Param item = CO[C@H]1O[C@H](CO)[C@@H](OC(=O)Nc2ccccc2)[C@@H]2OC(=O)[C@@H](Cc3ccccc3)C/C=C/C[C@H](Cc3ccccc3)C(=O)O[C@@H]12 ; retrieve measured z-score.
OUTPUT: 0.162

INPUT: Param item = COc1ccc(-c2cc3c(c(CCc4ccccc4)n2)[Si](C(C)C)(C(C)C)O[C@H]3c2ccccc2)cn1 ; retrieve measured z-score.
OUTPUT: 1.36

INPUT: Param item = Cc1ccc(S[C@]2(C(=O)NC3CC3)CC(=O)N(C3Cc4ccccc4C3)[C@@H]2c2ccc(CO)cc2I)cc1 ; retrieve measured z-score.
OUTPUT: 0.943
